experimental.details: Liver microsomes stability with NADPH, mouse
setup.conditions: male, mouse, microsomes
Experimental: The objective of this study was to estimate in vitro metabolic stability of representative compounds of the application in pooled human and male mouse liver microsomes. The concentrations of parent compounds in reaction systems were evaluated by LC-MS/MS for estimating the stability in pooled human and male mouse liver microsomes. The in vitro intrinsic clearances of test compounds were determined as well. […] The in vitro half-life (in vitro t1/2) was determined from the slope value: […]
reported.metric: half-life at 2 μM (h)
Express the result in h but write the number alone.

Data request: Please look at this compound and report its half-life at 2 μM: `[2H]C([2H])(c1c[nH]c2ccc(OC)cc12)[C@H]1CCCN1C`
Data returned: 1.51

Data request: Return half-life at 2 μM (reported value) for this compound: `[2H]C([2H])(c1c[nH]c2ccccc12)[C@H]1CCCN1`
Data returned: 1.22

Data request: Complete the entry with half-life at 2 μM for `[2H]C([2H])([2H])Oc1ccc2[nH]cc(C[C@H]3CCCN3C([2H])([2H])[2H])c2c1`
Data returned: 1.36

Data request: Look up and state reported half-life at 2 μM for COc1ccc2[nH]cc(CCN(C)C)c2c1 [Compound 5-MeO-DMT, 5-methoxy-N,N-dimethyltryptamine, reference compound]
Data returned: 0.842

Data request: Specify reported half-life at 2 μM for the compound shown: `[2H]C([2H])(c1c[nH]c2ccc(OC)cc12)[C@H]1CCCN1`
Data returned: 1.36

Data request: Using the record for `[2H]C([2H])([2H])Oc1ccc2[nH]cc(C([2H])([2H])[C@H]3CCCN3C([2H])([2H])[2H])c2c1` , state its measured half-life at 2 μM.
Data returned: 1.51

Data request: Please report half-life at 2 μM for the following compound: `[2H]C([2H])(c1c[nH]c2ccccc12)[C@H]1CCCN1C([2H])([2H])[2H]`
Data returned: 1.16
